// data source = paper PMC4237671

Assay: Pharmacokinetics after single IV bolus
Details: beagle, dog, in vivo, iv, 2 mg/kg, AUC, parent drug, IV bolus, n = 3 dogs; time zero to infinity
MEASURED PROPERTY: AUC (ng·h/mL)

| MOLECULE | UNITS TEXT | RECORDED NUMBER |
| --- | --- | --- |
| CCOC(=O)c1cncn1[C@H](C)c1ccccc1 [Etomidate, reference compound] | ng·h/mL | 1930 |

---

Assay: Pharmacokinetics after single IV bolus
Conditions: beagle, dog, in vivo, 2 mg/kg

| COMPOUND | concentration at 10 min [ng/mL] |
| --- | --- |
| CCOC(=O)c1cncn1[C@H](C)c1ccccc1 [Etomidate, reference compound] | 2230 |

---

Test: Pharmacokinetics after single bolus followed by 2-h infusion
Details: beagle, dog, in vivo

| MOLECULE | Cmax (ng/mL) |
| --- | --- |
| CCOC(=O)c1cncn1[C@H](C)c1ccccc1 [Etomidate, reference compound] | 2050 |
